Assign folding stability dG unfold to each entry below.
# experimentalProtocol: folding stability dG unfold from trypsin proteolysis; higher = more stable
Give bare numbers, in kcal/mol.

Some solved cases for reference:
Prompt line: Identify measured folding stability dG unfold associated with MKPLTPDEVKELAKFIANMIRRRMRENGIKDVEIPVKVEPDPNGWYWINVSITFKYNGKPIGRFPIEIWVRS [r1_364_TrROS]
Response line: 3.17

Prompt line: Identify measured folding stability dG unfold associated with SAGMKKPPPPTVTIKIRVNGKTITITVYPDGTVTVTFENGEKKTIKMTPEEVEKLLKELEKKGYEIELVSAG [r5_753_TrROS_Hall]
Response line: 2.51

Prompt line: Identify measured folding stability dG unfold associated with SAGGSAGGSSTATFTLSRLPDGTYRLTLYDPSTNKVTTEEVPASRPDEYSAVTVSSDGTVTTASAGGSAGGS [r20_11_JUSTAS]
Response line: 0.771

Prompt line: Identify measured folding stability dG unfold associated with SAGGSSGSMSPVLSLFEPGTGVVTYLLKKNDKLYLLVSTGSPGVPPVPSSVSPANLAAGDPVWATAGSAGGS [r16_809_JUSTAS]
Response line: -0.924

Prompt line: Identify measured folding stability dG unfold associated with SAGGSATVTVTLVVRDPATGELTTVTATVTLEAAPAPVSVSLSLSLSRDPNGNLSLSLSVSVTVEGSAGGSA [r2_326_TrROS_Hall]
Response line: 4.02

Further cases:
Prompt line: Identify measured folding stability dG unfold associated with SAGGSAGGSAGGSKLPEGAKITITKNEDGSYTLTVTFPNGEKVEITMSEDELKKLLEALSAGGSAGGSAGGS [r4_16_TrROS_Hall]
Response line: 3.84

---

# experimentalProtocol: folding stability dG unfold (combined trypsin and chymotrypsin); higher = more stable
# label = True if folding stability dG unfold >= 3 kcal/mol else False

Prompt line: Check if folding stability dG unfold >= 3 kcal/mol (inclusive). Item: SAGGSAGGSAGSPKGKPPKPTIEYEPITFEIPNPDGQGFELEISIIRMPGNGQEFIGISFSAGGSAGGSAGG [r11_1024_TrROS]
Response line: False

---

# experimentalProtocol: folding stability dG unfold from trypsin proteolysis; higher = more stable
Assign folding stability dG unfold to each entry below.
Answers are plain numbers, in kcal/mol.

Some solved cases for reference:
Prompt line: Identify measured folding stability dG unfold associated with SPGWYKVDIEIPMKEIQEEFGDPDKPITADRIKERVKKIAETIGFEVRDVEIEMDPNGWVRVTVTIPVKNSA [r9_52_TrROS]
Response line: 3.77

Prompt line: Identify measured folding stability dG unfold associated with SAGSSTTETFTHPDGSVVTVTEEELPDGSYRVTSVSYEATPDGTVSALLRKPDGTIITVDSLEELFALESAG [r5_618_JUSTAS]
Response line: 0.965

Alright, here's another sequence for you.
Prompt line: Identify measured folding stability dG unfold associated with SAGGNMFMIKIDDPDALKELANEPGISSVHYNPNNGRYTVMFNFPDGMRTFEIDAEDGKIKEIEPFPSAGGS [r8_251_TrROS]
Response line: 1.58

---

# experimentalProtocol: folding stability dG unfold from trypsin proteolysis; higher = more stable
readoutType: folding stability dG unfold
Hey, just the number and the unit after it is fine.

Prompt line: Identify measured folding stability dG unfold associated with SAGGSAGGSKKPKITITIEILVKNEDGKLYLFRIEIEINENGEISIKMEIFELKDIKPGDILLSAGGSAGGS [r12_38_TrROS_Hall]
Response line: 2.63 kcal/mol

Prompt line: Identify measured folding stability dG unfold associated with SAGGKIIAEGEFELEDGYVVRVKVEYDEETGELRVEVEVFEVEVELPEVEVKREFSDEELTEEEKEASAGGS [r8_461_TrROS_Hall]
Response line: 0.897 kcal/mol

Prompt line: Identify measured folding stability dG unfold associated with SAGMELELELEFRLEDGLEVRIRVKVRFDPETGELVIEEVRIEVRPLPPPPPLVLTDEELEALGLEPEESAG [r5_393_TrROS_Hall]
Response line: 3.6 kcal/mol

Prompt line: Identify measured folding stability dG unfold associated with SAGGSAGGSAMVVEERRLPDDLLVRTEVEPVEDNELPGPALRVTVTTVDLKTGEETPEVIPESAGGSAGGSA [r18_66_JUSTAS]
Response line: -0.713 kcal/mol

Prompt line: Identify measured folding stability dG unfold associated with SAGGELIEKAIEEALENGEEVEIEVVLRDENGELYRIRIRVRRERLPDGEVKTEIEIEIERFPLPEESAGGS [r16_323_TrROS_Hall]
Response line: 4.28 kcal/mol

Prompt line: Identify measured folding stability dG unfold associated with SAGGSAGGMLEIEFEKPLPNGETLKIKVFFDKDKPEALVEIENPSTNEKKFYNFTSIDEVIEKESAGGSAGG [r6_464_TrMRF]
Response line: 1.03 kcal/mol

Prompt line: Identify measured folding stability dG unfold associated with SGMERTPLTPTETVTLTIPPGSLTITPTASPGPLTVTVTVPGSGTPTVVELPVEAPDLDAALAAVVAALQSA [r9_982_JUSTAS]
Response line: 0.787 kcal/mol

Prompt line: Identify measured folding stability dG unfold associated with SAGGSAKIEEIASLPAEEIAEAFGLTVISATVERFEDGTVVLTVEIAPPLGPPIRVTFVFGVDPEKSAGGSA [r15_805_TrMRF]
Response line: 2.21 kcal/mol

Prompt line: Identify measured folding stability dG unfold associated with SAGGSAGGSAGGKMWIMIPKNEPINLPPGFDKVEIMTNPDDGYVMIRVDSPEDFKRLLEASAGGSAGGSAGG [r7_172_TrROS]
Response line: 1.41 kcal/mol

Prompt line: Identify measured folding stability dG unfold associated with SAGGSAGGSKTYKIKVEKLEDGTYKLKIIDKKTKKEYEITISKKNLPKIKEIKITKNGKIEIKSAGGSAGGS [r20_11_TrROS_Hall]
Response line: 1.73 kcal/mol

Below are 7 sequences. Give each one its folding stability dG unfold.
1. SAGGMPKTIEVEIVFKRDEEGKIGIDKIKKAAEELAKKFPEVKKVEVDIEEDPETDYVKVKVKVEVESAGGS [r8_258_TrMRF]
2. SAGGWRLNINFPPDNIEKIVEKLRDEFPGWEIKPDKIEYNPDDGQYTIPIEVKSKNPRAAEKIQDAIQSAGG [r13_539_TrROS]
3. SMPKKIIVLEVDEEEIKEFLEKLELGEDTEVKILLSFPDGKTALLEIGPNEIKSIKPIDAIPEKAYIVIASA [r9_849_TrMRF]
4. SAGMPLSVEEAIALLRKEIEAIPVPPSVTEIEFEITIPADGRPVKITVKVNEGKLEITVTVGDKPIKIGSAG [r14_199_JUSTAS]
5. SMKKTIIIKVKKEDMTPEEIAKKLAELGYEVEIVDVEYDEETEEVYITVEIYDENGELIEKIEIKLPRKDSA [r9_879_TrROS_Hall]
6. SAGGSAGGSAGDGMIEVKVEFERLFFDENGNVTKKEKVDEIIKVPPVTIDTSTGKLTPLPSAGGSAGGSAGG [r17_413_JUSTAS]
7. SAGARIVPIKINLKWNPDNGQLEVPIEMYVNNHPVEMEARFDPEDPGKIEFEITYPGNGQEIRASIPLPSAG [r14_178_TrROS]

Response line:
1. 1.75 kcal/mol
2. 0.154 kcal/mol
3. 1.71 kcal/mol
4. 1.79 kcal/mol
5. 0.825 kcal/mol
6. 0.261 kcal/mol
7. 0.951 kcal/mol
